Target: UniProt P48048
Sequence (P48048 whole entry): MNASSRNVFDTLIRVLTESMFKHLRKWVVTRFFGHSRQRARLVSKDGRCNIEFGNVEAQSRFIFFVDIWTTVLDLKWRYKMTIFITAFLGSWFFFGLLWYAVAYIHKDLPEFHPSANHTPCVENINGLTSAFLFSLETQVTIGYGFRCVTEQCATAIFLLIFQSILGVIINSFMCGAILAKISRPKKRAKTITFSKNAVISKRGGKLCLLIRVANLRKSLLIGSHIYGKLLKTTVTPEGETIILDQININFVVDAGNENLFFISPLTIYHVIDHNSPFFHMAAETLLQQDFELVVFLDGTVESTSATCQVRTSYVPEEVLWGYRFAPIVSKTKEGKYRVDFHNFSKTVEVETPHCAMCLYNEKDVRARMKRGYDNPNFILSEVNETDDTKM
Assay: Thallium Flux Assay (ROMK channel functional thallium flux assay, FLIPR-Tetra)
Details: HEK293 cells stably expressing hROMK
Label T when IC50 < 0.1 µM; otherwise F.

Report whether reported IC50 is lower than 0.1 µM (strictly) for CC1=C(N2CCC3(CCN(C[C@H](O)c4ccc5c(c4C)COC5=O)CC3F)C2=O)COC1=O (single isomer, unassigned) [Example 27]
F

Same question, O=C1C=C(N2CCC3(CCN(CC4OCCc5c4ccc4c5COC4=O)CC3)C2=O)CO1 (racemic) this time
F

Same question, `CC1=C(N2CCC3(CCN(C[C@@H](F)c4ccc5c(c4C)COC5=O)CC3)C2=O)COC1=O` this time
T

Same question, `Cc1c([C@@H](O)CN2CCC3(CCCN(C4=CC(=O)OC4)C3=O)CC2)ccc2c1COC2=O` this time
T

Same question, `Cc1c([C@@H](O)CN2CCC3(CC2)CCN(C2=CC(=O)OC2)C3=O)ccc2c1COC2=O` this time
T

Same question, CC1=C(N2CCC3(CCN(CC(NCCC#N)c4ccc5c(c4C)COC5=O)CC3)C2=O)COC1=O (stereo not shown) this time
F

Same question, CC1=C(N2CCC3(CC4CN(C)CC(C3)N4C[C@@H](O)c3ccc4c(c3C)COC4=O)C2=O)COC1=O (stereo partly shown) this time
F
